- Tested on: VDR homodimer (NR concentration 270 nM)
- Procedure Details: PBM binding z-score (relative to random genomic background probes); higher = stronger binding; sequences stand for … in GC…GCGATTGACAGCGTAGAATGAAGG
Quick reference for PBM binding z-score among some sequences
Keep the answer to the number alone.

Answered examples (8):
> print(dat)
                             sequence  reported.value
1  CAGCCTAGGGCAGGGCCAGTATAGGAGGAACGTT          -0.621
2  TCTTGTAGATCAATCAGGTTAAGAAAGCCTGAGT          0.0655
3  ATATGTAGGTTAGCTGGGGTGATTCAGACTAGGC           0.601
4  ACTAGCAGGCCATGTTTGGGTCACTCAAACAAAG          -0.169
5  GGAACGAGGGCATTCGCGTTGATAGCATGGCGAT            1.79
6  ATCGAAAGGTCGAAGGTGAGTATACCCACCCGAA           0.804
7  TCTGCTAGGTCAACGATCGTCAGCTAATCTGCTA          -0.498
8  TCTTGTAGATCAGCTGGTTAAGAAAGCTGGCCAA          -0.694

Proceeding to the next sequence to report its PBM binding z-score.
Measured on VDR homodimer (NR concentration 270 nM), `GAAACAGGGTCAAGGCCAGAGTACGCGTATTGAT` has a documented PBM binding z-score of 2.56

* * *

Quick reference for PBM binding z-score among some sequences
- Tested on: PXR:RXRa (NR concentration 270 nM, RXRa partner concentration 90 nM)
- Procedure Details: PBM binding z-score (relative to random genomic background probes); higher = stronger binding; sequences stand for … in GC…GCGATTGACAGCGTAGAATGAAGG
Keep the answer to the number alone.

Answered examples (4):
> print(dat)
                             sequence             property  reported.value
1  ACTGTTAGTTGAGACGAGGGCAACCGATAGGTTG  PBM binding z-score             1.2
2  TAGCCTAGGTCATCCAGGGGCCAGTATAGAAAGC  PBM binding z-score             2.6
3  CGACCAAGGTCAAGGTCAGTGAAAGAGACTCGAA  PBM binding z-score            4.59
4  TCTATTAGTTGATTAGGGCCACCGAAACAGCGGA  PBM binding z-score           0.517

Entry under test: `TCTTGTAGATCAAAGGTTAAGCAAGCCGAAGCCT` . Its PBM binding z-score was 2.14

* * *

- System: PPARg:RXRa IVT, anti-PPARg (NR concentration 270 nM, RXRa partner concentration 90 nM)
- Procedure Details: PBM binding z-score (relative to random genomic background probes); higher = stronger binding; sequences stand for … in GC…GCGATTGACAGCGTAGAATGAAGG
Assign class by PBM binding z-score: not lower than 3 means yes (1); lower than 3 means no (0).

Worked examples follow.
> print(dat)
                             sequence  group.label
1  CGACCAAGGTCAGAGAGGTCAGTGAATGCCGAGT      yes (1)
2  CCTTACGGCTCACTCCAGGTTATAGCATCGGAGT       no (0)
3  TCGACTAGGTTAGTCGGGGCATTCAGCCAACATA       no (0)
4  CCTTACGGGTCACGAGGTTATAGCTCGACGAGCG      yes (1)

Task item: API: above_or_equal(metric=PBM binding z-score, cutoff=3) for item `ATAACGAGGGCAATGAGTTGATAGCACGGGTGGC`
Reply: no (0)
